type: physicochemical
reportedMetric: LOG KEVA-W (EVA-water partition coefficient) ORE

Guide cases for LOG KEVA-W (EVA-water partition coefficient) ORE, answers given:
Brc1ccc(Oc2ccc(Br)cc2Br)cc1 [BDE 28] | 6.38 ± 0.10
Brc1ccc(Oc2c(Br)cccc2Br)cc1Br [BDE 71] | 6.67 ± 0.02
Brc1ccc(Oc2ccccc2Br)c(Br)c1 [BDE 17] | 6.40 ± 0.08
Brc1ccc(Oc2ccc(Br)cc2Br)c(Br)c1 [BDE 47] | 6.79 ± 0.10

Request: May I ask what LOG KEVA-W (EVA-water partition coefficient) ORE has been recorded for Brc1ccc(Oc2ccc(Br)c(Br)c2)c(Br)c1 [BDE 66] ?
Result: 6.66 ± 0.11
